These data points were gathered from ChEMBL document CHEMBL1926636.

Some compounds, each annotated with its measured zone of inhibition at 10 µg/mL.
# System: Staphylococcus aureus
# run description: Antibacterial activity against Staphylococcus aureus ATCC 6538 at 10 ug/mL after 24 hrs by disc diffusion method
# Assay type: functional
# condition parameters: ATCC 6538, 24 h, read-out: IZ
property measured: zone of inhibition at 10 µg/mL (mm)

c1ccc(CN2C(c3ccccc3)C3=C(NOC3c3ccccc3)C3CCCCC32)cc1 (centres undefined) : 10
O=C(O)c1cn(C2CC2)c2cc(N3CCNCC3)c(F)cc2c1=O : 17
c1ccc(CN2C(c3ccccc3)C3=C(NOC3c3c[nH]c4ccccc34)C3CCCCC32)cc1 (centres undefined) : 11
Clc1ccc(C2ONC3=C2C(c2ccccc2)N(Cc2ccccc2)C2CCCCC32)cc1 (centres undefined) : 14

----------
# Test system: Lysinibacillus sphaericus
# run description: Antibacterial activity against Bacillus sphaericus ATCC 7031 by twofold serial dilution technique
# Format: functional
property measured: MIC99 (µg/mL)

c1ccc(CN2C(c3ccccc3)C3=C(NOC3c3ccccn3)C3CCCCC32)cc1 (centres undefined) : 25
O=[N+]([O-])c1ccc(C2ONC3=C2C(c2ccccc2)N(Cc2ccccc2)C2CCCCC32)cc1 (centres undefined) : 50
c1ccc(CN2C(c3ccccc3)C3=C(NOC3c3cccnc3)C3CCCCC32)cc1 (centres undefined) : 50
O=C(O)c1cn(C2CC2)c2cc(N3CCNCC3)c(F)cc2c1=O : 20
c1ccc(CN2C(c3ccccc3)C3=C(NOC3c3ccco3)C3CCCCC32)cc1 (centres undefined) : 50
O=[N+]([O-])c1cccc(C2ONC3=C2C(c2ccccc2)N(Cc2ccccc2)C2CCCCC32)c1 (centres undefined) : 100
Clc1ccccc1C1ONC2=C1C(c1ccccc1)N(Cc1ccccc1)C1CCCCC21 (centres undefined) : 50
c1ccc(CN2C(c3ccccc3)C3=C(NOC3c3c[nH]c4ccccc34)C3CCCCC32)cc1 (centres undefined) : 100
Clc1ccc(C2ONC3=C2C(c2ccccc2)N(Cc2ccccc2)C2CCCCC32)cc1 (centres undefined) : 25

----------
# Test system: Lysinibacillus sphaericus
# run description: Antibacterial activity against Bacillus sphaericus ATCC 7031 by twofold serial dilution technique
# Assay type: functional
property measured: MIC99 (µg/mL)

c1ccc(CN2C(c3ccccc3)C3=C(NOC3c3ccccc3)C3CCCCC32)cc1 (centres undefined) : 100
COc1ccc(C2ONC3=C2C(c2ccccc2)N(Cc2ccccc2)C2CCCCC32)cc1OC (centres undefined) : 100
c1ccc(CN2C(c3ccccc3)C3=C(NOC3c3ccc4c(c3)OCO4)C3CCCCC32)cc1 (centres undefined) : 50
COc1ccc(C2ONC3=C2C(c2ccccc2)N(Cc2ccccc2)C2CCCCC32)cc1 (centres undefined) : 100

----------
# Test system: Staphylococcus aureus
# run description: Antibacterial activity against Staphylococcus aureus ATCC 6538 at 10 ug/mL after 24 hrs by disc diffusion method
# Type: functional
# condition parameters: ATCC 6538, 24 h, read-out: IZ
property measured: zone of inhibition at 10 µg/mL

c1ccc(CN2C(c3ccccc3)C3=C(NOC3c3cccnc3)C3CCCCC32)cc1 (centres undefined) : 11 mm
c1ccc(CN2C(c3ccccc3)C3=C(NOC3c3ccco3)C3CCCCC32)cc1 (centres undefined) : 5 mm
c1ccc(CN2C(c3ccccc3)C3=C(NOC3c3ccccn3)C3CCCCC32)cc1 (centres undefined) : 12 mm
O=[N+]([O-])c1cccc(C2ONC3=C2C(c2ccccc2)N(Cc2ccccc2)C2CCCCC32)c1 (centres undefined) : 8 mm
COc1ccc(C2ONC3=C2C(c2ccccc2)N(Cc2ccccc2)C2CCCCC32)cc1OC (centres undefined) : 9 mm
O=[N+]([O-])c1ccc(C2ONC3=C2C(c2ccccc2)N(Cc2ccccc2)C2CCCCC32)cc1 (centres undefined) : 11 mm
COc1ccc(C2ONC3=C2C(c2ccccc2)N(Cc2ccccc2)C2CCCCC32)cc1 (centres undefined) : 14 mm
c1ccc(CN2C(c3ccccc3)C3=C(NOC3c3ccc4c(c3)OCO4)C3CCCCC32)cc1 (centres undefined) : 8 mm
Clc1ccccc1C1ONC2=C1C(c1ccccc1)N(Cc1ccccc1)C1CCCCC21 (centres undefined) : 12 mm

----------
The entries below come with measured MIC99 values attached.
# Test system: Escherichia coli
# run description: Antibacterial activity against Escherichia coli ATCC 35218 by twofold serial dilution technique
# Type: functional
property measured: MIC99 (µg/mL)

c1ccc(CN2C(c3ccccc3)C3=C(NOC3c3ccccn3)C3CCCCC32)cc1 (stereo not drawn) : 25
c1ccc(CN2C(c3ccccc3)C3=C(NOC3c3ccco3)C3CCCCC32)cc1 (stereo not drawn) : 100
c1ccc(CN2C(c3ccccc3)C3=C(NOC3c3ccccc3)C3CCCCC32)cc1 (stereo not drawn) : 100
O=C(O)c1cn(C2CC2)c2cc(N3CCNCC3)c(F)cc2c1=O : 18
c1ccc(CN2C(c3ccccc3)C3=C(NOC3c3cccnc3)C3CCCCC32)cc1 (stereo not drawn) : 100
c1ccc(CN2C(c3ccccc3)C3=C(NOC3c3c[nH]c4ccccc34)C3CCCCC32)cc1 (stereo not drawn) : 25
COc1ccc(C2ONC3=C2C(c2ccccc2)N(Cc2ccccc2)C2CCCCC32)cc1OC (stereo not drawn) : 50
Clc1ccccc1C1ONC2=C1C(c1ccccc1)N(Cc1ccccc1)C1CCCCC21 (stereo not drawn) : 25
COc1ccc(C2ONC3=C2C(c2ccccc2)N(Cc2ccccc2)C2CCCCC32)cc1 (stereo not drawn) : 25
O=[N+]([O-])c1cccc(C2ONC3=C2C(c2ccccc2)N(Cc2ccccc2)C2CCCCC32)c1 (stereo not drawn) : 50
c1ccc(CN2C(c3ccccc3)C3=C(NOC3c3ccc4c(c3)OCO4)C3CCCCC32)cc1 (stereo not drawn) : 50
O=[N+]([O-])c1ccc(C2ONC3=C2C(c2ccccc2)N(Cc2ccccc2)C2CCCCC32)cc1 (stereo not drawn) : 50
Clc1ccc(C2ONC3=C2C(c2ccccc2)N(Cc2ccccc2)C2CCCCC32)cc1 (stereo not drawn) : 50

----------
# Tested on: Bacillus subtilis
# run description: Antibacterial activity against Bacillus subtilis ATCC 6631 at 10 ug/mL after 24 hrs by disc diffusion method
# Assay type: functional
# condition parameters: ATCC 6631, 24 h, read-out: IZ
property measured: zone of inhibition at 10 µg/mL (mm)

c1ccc(CN2C(c3ccccc3)C3=C(NOC3c3ccco3)C3CCCCC32)cc1 (stereo not drawn) : 5
c1ccc(CN2C(c3ccccc3)C3=C(NOC3c3ccc4c(c3)OCO4)C3CCCCC32)cc1 (stereo not drawn) : 5
Clc1ccc(C2ONC3=C2C(c2ccccc2)N(Cc2ccccc2)C2CCCCC32)cc1 (stereo not drawn) : 6
Clc1ccccc1C1ONC2=C1C(c1ccccc1)N(Cc1ccccc1)C1CCCCC21 (stereo not drawn) : 5
c1ccc(CN2C(c3ccccc3)C3=C(NOC3c3ccccn3)C3CCCCC32)cc1 (stereo not drawn) : 6
O=C(O)c1cn(C2CC2)c2cc(N3CCNCC3)c(F)cc2c1=O [CIPROFLOXACIN] : 9
COc1ccc(C2ONC3=C2C(c2ccccc2)N(Cc2ccccc2)C2CCCCC32)cc1OC (stereo not drawn) : 7
O=[N+]([O-])c1cccc(C2ONC3=C2C(c2ccccc2)N(Cc2ccccc2)C2CCCCC32)c1 (stereo not drawn) : 6
COc1ccc(C2ONC3=C2C(c2ccccc2)N(Cc2ccccc2)C2CCCCC32)cc1 (stereo not drawn) : 5
O=[N+]([O-])c1ccc(C2ONC3=C2C(c2ccccc2)N(Cc2ccccc2)C2CCCCC32)cc1 (stereo not drawn) : 4
c1ccc(CN2C(c3ccccc3)C3=C(NOC3c3cccnc3)C3CCCCC32)cc1 (stereo not drawn) : 3
c1ccc(CN2C(c3ccccc3)C3=C(NOC3c3ccccc3)C3CCCCC32)cc1 (stereo not drawn) : 4
c1ccc(CN2C(c3ccccc3)C3=C(NOC3c3c[nH]c4ccccc34)C3CCCCC32)cc1 (stereo not drawn) : 3

----------
# System: Aspergillus niger
# run description: Antifungal activity against Aspergillus niger ATCC 16404 at 10 ug/mL after 72 hrs by agar cup plate method
# Format: functional
# condition parameters: ATCC 16404, 72 h, read-out: IZ
property measured: zone of inhibition at 10 µg/mL (mm)

COc1ccc(C2ONC3=C2C(c2ccccc2)N(Cc2ccccc2)C2CCCCC32)cc1OC (stereo not drawn) : 14
CC(=O)N1CCN(c2ccc(OCC3COC(Cn4ccnc4)(c4ccc(Cl)cc4Cl)O3)cc2)CC1 (stereo not drawn) [KETOCONAZOLE] : 25
c1ccc(CN2C(c3ccccc3)C3=C(NOC3c3ccco3)C3CCCCC32)cc1 (stereo not drawn) : 4
c1ccc(CN2C(c3ccccc3)C3=C(NOC3c3ccccc3)C3CCCCC32)cc1 (stereo not drawn) : 4
c1ccc(CN2C(c3ccccc3)C3=C(NOC3c3c[nH]c4ccccc34)C3CCCCC32)cc1 (stereo not drawn) : 9
Clc1ccccc1C1ONC2=C1C(c1ccccc1)N(Cc1ccccc1)C1CCCCC21 (stereo not drawn) : 14
c1ccc(CN2C(c3ccccc3)C3=C(NOC3c3ccc4c(c3)OCO4)C3CCCCC32)cc1 (stereo not drawn) : 11
c1ccc(CN2C(c3ccccc3)C3=C(NOC3c3cccnc3)C3CCCCC32)cc1 (stereo not drawn) : 8
O=[N+]([O-])c1ccc(C2ONC3=C2C(c2ccccc2)N(Cc2ccccc2)C2CCCCC32)cc1 (stereo not drawn) : 13
c1ccc(CN2C(c3ccccc3)C3=C(NOC3c3ccccn3)C3CCCCC32)cc1 (stereo not drawn) : 10
O=[N+]([O-])c1cccc(C2ONC3=C2C(c2ccccc2)N(Cc2ccccc2)C2CCCCC32)c1 (stereo not drawn) : 21
Clc1ccc(C2ONC3=C2C(c2ccccc2)N(Cc2ccccc2)C2CCCCC32)cc1 (stereo not drawn) : 16
COc1ccc(C2ONC3=C2C(c2ccccc2)N(Cc2ccccc2)C2CCCCC32)cc1 (stereo not drawn) : 7
